ASSAYED_TARGET: human ether-à-go-go-related gene (hERG) potassium channel (human, UniProt Q12809);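 further: peak tail current of the secondary pulse compared with the same well before compound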
Sequence (Q12809 whole entry, looked up): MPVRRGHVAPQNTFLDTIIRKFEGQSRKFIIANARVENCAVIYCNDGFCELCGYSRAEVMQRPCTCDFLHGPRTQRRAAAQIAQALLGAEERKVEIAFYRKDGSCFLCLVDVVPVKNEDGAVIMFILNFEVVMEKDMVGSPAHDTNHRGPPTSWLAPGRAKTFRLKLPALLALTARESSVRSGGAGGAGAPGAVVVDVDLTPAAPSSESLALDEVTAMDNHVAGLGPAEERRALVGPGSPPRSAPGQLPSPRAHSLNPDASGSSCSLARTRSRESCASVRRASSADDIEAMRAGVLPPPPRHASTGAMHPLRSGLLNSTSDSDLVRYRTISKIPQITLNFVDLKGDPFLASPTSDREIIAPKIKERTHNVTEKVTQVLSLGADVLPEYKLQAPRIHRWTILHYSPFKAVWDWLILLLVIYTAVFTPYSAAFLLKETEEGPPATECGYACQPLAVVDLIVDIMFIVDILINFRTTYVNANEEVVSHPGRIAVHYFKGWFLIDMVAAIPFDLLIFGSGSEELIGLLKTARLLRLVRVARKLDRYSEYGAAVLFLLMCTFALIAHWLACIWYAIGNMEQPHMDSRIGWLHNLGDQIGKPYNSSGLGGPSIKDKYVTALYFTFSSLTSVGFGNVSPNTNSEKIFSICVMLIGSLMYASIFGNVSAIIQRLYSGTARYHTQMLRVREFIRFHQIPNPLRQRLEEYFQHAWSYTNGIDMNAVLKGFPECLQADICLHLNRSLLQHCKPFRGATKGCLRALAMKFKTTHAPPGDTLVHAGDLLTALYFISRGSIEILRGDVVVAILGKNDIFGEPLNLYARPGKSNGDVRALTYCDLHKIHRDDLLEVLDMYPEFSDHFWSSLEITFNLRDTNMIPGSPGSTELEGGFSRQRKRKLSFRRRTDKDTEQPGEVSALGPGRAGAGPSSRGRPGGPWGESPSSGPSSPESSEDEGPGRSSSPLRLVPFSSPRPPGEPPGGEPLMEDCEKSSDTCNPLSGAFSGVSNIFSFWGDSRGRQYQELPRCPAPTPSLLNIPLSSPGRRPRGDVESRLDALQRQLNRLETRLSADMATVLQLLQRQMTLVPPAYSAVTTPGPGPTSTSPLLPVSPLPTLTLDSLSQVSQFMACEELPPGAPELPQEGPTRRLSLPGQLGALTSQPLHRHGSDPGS
TEST_NAME: primary screen, population patch clamp on CHO cells stably expressing hERG; higher = less effect of the substance
About 14,000 (4.5%) of roughly 310,000 compounds showed an effect of 50% or more. The effect is printed as a negative number. The list comes from a sample in which strong results are over-represented; it also holds close analogues and randomly drawn compounds.
ENDPOINT_NAME: hERG current change (%, negative = inhibition) at 10uM (%)

1) O=C(CSc1ccc(-c2ccc(Br)cc2)nn1)N1CCOCC1; -18.7
2) O=C(c1ccc(CN2CCc3ccccc3C2)cc1)N1CCN(c2ccccc2)CC1; -46.3
3) CC(=O)c1cccc(CN2CCCC(N3CCN(c4ccccc4F)CC3)C2)c1 (stereo not shown); -35.3
4) Cc1cc(CNC(=O)CC2C(=O)NCCN2Cc2ccccc2C(F)(F)F)nn1C (stereo not shown); 9.04
5) Cc1nn(-c2cc(N3CCCCCC3)ccc2[N+](=O)[O-])c(=O)c2ccccc12; 6.02
6) COc1ccc(-n2c(/C=C/c3ccc(O)cc3)nc3ccccc3c2=O)cc1; -21.6
7) Cc1ccc(-n2c(/C=C/c3ccc4c(c3)OCO4)nc3ccccc3c2=O)cc1; -50.4
8) CCc1ccc2c(CSc3nnnn3C)cc(=O)oc2c1; -68.1
9) CCN(CC)CC(=O)N1CCCC(N2CCN(c3cccc(C(F)(F)F)c3)CC2)C1 (stereo not shown); -10.5
10) COc1ccccc1OCCNC(=O)c1cc(F)c(F)cc1Cl; -2.68
11) Cc1ccc2c(CN3CCN(S(=O)(=O)c4ccccc4C(F)(F)F)CC3)cc(=O)oc2c1C; -5.49
12) Cc1ccc2c(CN3CCN(S(=O)(=O)c4ccccc4C(F)(F)F)CC3)cc(=O)oc2c1; -57.3
13) Oc1ccccc1CN1CCCC(N2CCN(c3cccc(C(F)(F)F)c3)CC2)C1 (stereo not shown); -61.9
14) CCOC(=O)c1c(NC(NC(=O)C(C)C)C(Cl)(Cl)Cl)sc2c1CCC2 (stereo not shown); 11
15) O=c1c2ccccc2nc(/C=C/c2ccc3c(c2)OCO3)n1-c1ccccc1; -26
16) CN1CCC(N2CCN(c3cccc(C(F)(F)F)c3)CC2)CC1; -12.8
17) COc1ccc(-n2c(/C=C/c3ccc(O)c(O)c3)nc3ccccc3c2=O)cc1; 10.6
18) COc1cc(NC(=O)NCC2CCN(Cc3ccccc3F)CC2)cc(OC)c1; -14.9
19) CC(=O)C(=Nc1cccc(Cl)c1)NNc1ccccc1C; 8.82
20) CCCn1c(=O)c2c(nc3n2CCCN3CCc2ccc(OC)c(OC)c2)n(C)c1=O; -23.7
21) O=C(NCC1CCN(Cc2ccccc2Cl)CC1)Nc1ccccc1F; -44.7
22) O=C(c1ccc(Br)o1)N1CCN(c2ccc(F)cc2)CC1; -45.6
23) O=C(c1ccc(CN2CCc3ccccc3C2)cc1)N1CCN(c2ccc(F)cc2)CC1; -68.6
24) C=CCn1c(=O)c2c(nc3n2CCCN3CCc2ccc(OC)c(OC)c2)n(C)c1=O; -79.6
25) CC(=O)N1c2ccc(N=Cc3cc(Br)cc(Br)c3O)cc2CC1C (stereo not shown); 2.6
26) COc1ccc(N2CCC(CNC(=O)Nc3cccc(OC)c3)C2)cc1 (stereo not shown); -15.7
27) Fc1ccccc1N1CCN(C2CCCN(Cc3ccccc3C(F)(F)F)C2)CC1 (stereo not shown); -5.91
28) O=c1c2ccccc2nc(/C=C/c2ccc3c(c2)OCO3)n1-c1cccc(O)c1; -7.38
29) Cn1c(=O)n(CC(=O)O)c(=O)c2c1nc1n2CCCN1CCc1ccccc1; 13.6
30) Cn1nnnc1SCc1cc(=O)[nH]c2ccccc12; 2.31
31) CC(=O)c1ccc(-c2ccc(C(=O)N3CCN(c4ccc(F)cc4)CC3)o2)cc1; -16.7
32) CSc1ccccc1C(=O)N1CCN(c2ccc(F)cc2)CC1; -17.5
33) COc1cc(NC(=O)NCC2CCN(Cc3ccccc3Cl)CC2)cc(OC)c1OC; 3.03
34) CCCN1CCC(N2CCN(c3cccc(C(F)(F)F)c3)CC2)CC1; -75.3
35) CC(=O)N1CCN(C(=O)c2cccc(S(=O)(=O)NCc3ccccc3)c2)CC1; 5.5
36) O=C(c1ccc(CN2CCc3ccccc3C2)cc1)N1CCCCC1; -9.72
37) Cn1c(=O)c2c(nc3n2CCCN3CCc2ccccc2)n(C)c1=O; -1.45
38) CCc1ccc2oc(=O)cc(CN3CCN(Cc4ccccc4)CC3)c2c1; -46.3
39) Fc1ccccc1N1CCN(C2CCCN(Cc3cccc(C(F)(F)F)c3)C2)CC1 (stereo not shown); -52.1
40) Cc1noc(C)c1S(=O)(=O)NCc1ccc(CN(C)C)cc1.Cl; 6.09
